Quick reference: pKd of the listed items.
Biological target: T1, His-tagged PrgX (Enterococcus faecalis (plasmid pCF10), UniProt Q04114 1-317)
T1 construct: PrgX, master transcription regulator and sex pheromone receptor encoded by the Enterococcus faecalis plasmid pCF10; also called HisPrgX; Apo-PrgX
T1 sequence (looked up): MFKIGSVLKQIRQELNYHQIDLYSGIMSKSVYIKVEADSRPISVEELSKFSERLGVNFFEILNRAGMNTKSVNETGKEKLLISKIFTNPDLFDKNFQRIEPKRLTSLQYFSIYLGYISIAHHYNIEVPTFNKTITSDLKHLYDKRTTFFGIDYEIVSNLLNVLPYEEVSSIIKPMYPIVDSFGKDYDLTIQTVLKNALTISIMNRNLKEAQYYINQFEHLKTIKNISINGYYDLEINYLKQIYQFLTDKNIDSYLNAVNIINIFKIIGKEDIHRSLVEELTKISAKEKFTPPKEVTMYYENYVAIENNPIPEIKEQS
Assay: SPR
Conditions: both partners purified
# pKd: negative log10 of molar concentration; output just the value

> print(dat)
                                     binder  recorded.metric  endpoint.value
1  LVTLVFV (source: synthetic peptide, bought: New England Peptides) [cCF10 (C, clumping-inducing peptide, sex pheromone)]              pKd           12.16

# evaluate next
Recorded pKd (binder AITLIFI (source: synthetic peptide, bought: New England Peptides) [iCF10 (I, inhibitor peptide)] ): 12.82
